Entries with reported MIC on Prot. vulg.
resultType: MIC (µg/mL)

- compound: "CC(=O)NC(C)(C)C(=O)Nc1ccc(-c2ncc(C(=O)N[C@@H](C(=O)N[C@@H]3C(=O)N4C(C(=O)O)=C(COC(C)=O)CS[C@H]34)c3ccccc3)c(O)n2)cc1"
  resultType: "MIC"
  measurement: 25
- compound: "CC(=O)NC(C)(C)C(=O)Nc1ccc(-c2ncc(C(=O)N[C@@H](C(=O)NC3C(=O)N4C(C(=O)O)=C(CSc5nnnn5C)CSC34)c3ccccc3)c(O)n2)cc1 (stereo partly drawn)"
  resultType: "MIC"
  measurement: 25
- compound: "CC(=O)NC(C)C(=O)Nc1ccc(-c2ncc(C(=O)N[C@@H](C(=O)N[C@@H]3C(=O)N4C(C(=O)O)=C(COC(N)=O)CS[C@H]34)c3ccccc3)c(O)n2)cc1 (mixture of isomers)"
  resultType: "MIC"
  measurement: 25
- compound: "NC(=O)CC[C@H](N)C(=O)Nc1ccc(-c2ncc(C(=O)N[C@@H](C(=O)NC3C(=O)N4C(C(=O)O)=C(CSc5nnnn5CC(=O)O)CSC34)c3ccccc3)c(O)n2)cc1 (stereo partly drawn)"
  resultType: "MIC"
  measurement: 1.6
- compound: "CC(=O)N[C@H](C)C(=O)Nc1ccc(-c2ncc(C(=O)N[C@@H](C(=O)N[C@@H]3C(=O)N4C(C(=O)O)=C(COC(C)=O)CS[C@H]34)c3ccc(O)cc3)c(O)n2)cc1"
  resultType: "MIC"
  measurement: 12.5
- compound: "CC(=O)N[C@H](C)C(=O)Nc1ccc(-c2ncc(C(=O)N[C@@H](C(=O)NC3C(=O)N4C(C(=O)O)=C(CSc5nnnn5CC(=O)O)CSC34)c3ccccc3)c(O)n2)cc1 (stereo partly drawn)"
  resultType: "MIC"
  measurement: 1.6
- compound: "CC(=O)OCC1=C(C(=O)O)N2C(=O)[C@@H](NC(=O)[C@H](NC(=O)c3cnc(-c4ccc(NC(=O)C5CCC(=O)N5)cc4)nc3O)c3ccccc3)[C@H]2SC1 (mixture of isomers)"
  resultType: "MIC"
  measurement: 50
- compound: "CC(=O)NC(C)C(=O)Nc1ccc(-c2ncc(C(=O)N[C@@H](C(=O)N[C@@H]3C(=O)N4C(C(=O)O)=C(COC(C)=O)CS[C@H]34)c3ccc(O)cc3)c(O)n2)cc1 (mixture of isomers)"
  resultType: "MIC"
  measurement: 12.5
- compound: "CC(=O)NC(C)C(=O)Nc1ccc(-c2ncc(C(=O)N[C@@H](C(=O)NC3C(=O)N4C(C(=O)O)=C(CSc5nnnn5C)CSC34)c3ccccc3)c(O)n2)cc1 (mixture of isomers)"
  resultType: "MIC"
  measurement: 25
- compound: "C[C@@H](N)C(=O)Nc1ccc(-c2ncc(C(=O)N[C@@H](C(=O)NC3C(=O)N4C(C(=O)O)=C(CSc5nnnn5CC(=O)O)CSC34)c3ccccc3)c(O)n2)cc1 (stereo partly drawn)"
  resultType: "MIC"
  measurement: 0.8
- compound: "CSCCC(NC(C)=O)C(=O)Nc1ccc(-c2ncc(C(=O)N[C@@H](C(=O)N[C@@H]3C(=O)N4C(C(=O)O)=C(COC(C)=O)CS[C@H]34)c3ccccc3)c(O)n2)cc1 (mixture of isomers)"
  resultType: "MIC"
  measurement: 25
- compound: "CC(=O)NCCCCC(NC(C)=O)C(=O)Nc1ccc(-c2ncc(C(=O)N[C@@H](C(=O)N[C@@H]3C(=O)N4C(C(=O)O)=C(COC(C)=O)CS[C@H]34)c3ccccc3)c(O)n2)cc1 (mixture of isomers)"
  resultType: "MIC"
  measurement: 50
- compound: "CC(=O)NC(CC(C)C)C(=O)Nc1ccc(-c2ncc(C(=O)N[C@@H](C(=O)N[C@@H]3C(=O)N4C(C(=O)O)=C(COC(C)=O)CS[C@H]34)c3ccccc3)c(O)n2)cc1 (mixture of isomers)"
  resultType: "MIC"
  measurement: 25
- compound: "CC(=O)OCC1=C(C(=O)O)N2C(=O)[C@@H](NC(=O)[C@H](NC(=O)c3cnc(-c4ccc(NC(=O)[C@@H](C)N)cc4)nc3O)c3ccccc3)[C@H]2SC1"
  resultType: "MIC"
  measurement: 25
- compound: "CC(=O)NC(C)C(=O)Nc1ccc(-c2ncc(C(=O)N[C@@H](C(=O)NC3C(=O)N4C(C(=O)O)=C(CSc5nnnn5C)CSC34)c3ccc(O)cc3)c(O)n2)cc1 (mixture of isomers)"
  resultType: "MIC"
  measurement: 12.5
- compound: "CC(=O)N[C@H](C)C(=O)Nc1ccc(-c2ncc(C(=O)N[C@@H](C(=O)N[C@@H]3C(=O)N4C(C(=O)O)=C(COC(C)=O)CS[C@H]34)c3cccs3)c(O)n2)cc1"
  resultType: "MIC"
  measurement: 25
- compound: "CC(=O)OCC1=C(C(=O)O)N2C(=O)[C@@H](NC(=O)[C@H](NC(=O)c3cnc(-c4ccc(NC(=O)C5CCCN5C(C)=O)cc4)nc3O)c3ccccc3)[C@H]2SC1 (mixture of isomers)"
  resultType: "MIC"
  measurement: 50
- compound: "CC(=O)N[C@H](C)C(=O)Nc1ccc(-c2ncc(C(=O)N[C@@H](C(=O)N[C@@H]3C(=O)N4C(C(=O)O)=C(COC(N)=O)CS[C@H]34)c3ccccc3)c(O)n2)cc1"
  resultType: "MIC"
  measurement: 12.5

All values here come from patent US4311699A.
